Ref: patent US20250059164A1

Target Or Test System: IRAK4 (Homo sapiens)
Construct: endogenous in cells; host or cells: OCI-LY10
Test Name: IRAK4 MSD degradation in OCI-LY10
Format: cell-based
Conditions: OCI-LY10 cells, 24 hrs, Meso Scale Discovery
Below: a set of entries, each annotated with reported DC50.

For orientation, consider the following solved cases.
Compound	DC50
COc1cc2nn([C@H]3CC[C@H](CN4CC[C@@H](c5cccc6c5n(C)c(=O)n6C5CCC(=O)NC5=O)[C@H](F)C4)CC3)cc2cc1NC(=O)c1cncc(C(F)F)c1 (some centres unmarked)	< 10 nM
Cn1c(=O)n(C2CCC(=O)NC2=O)c2cccc(N3CC(OC[C@H]4CC[C@H](n5cc6cc(NC(=O)c7cccc(C(F)(F)F)c7)ccc6n5)CC4)C3)c21 (some centres unmarked)	> 200 nM
Cn1c(=O)n(C2CCC(=O)NC2=O)c2cccc(N3CC4(CCN(C[C@H]5CC[C@H](c6nc7cc(C(C)(C)O)c(NC(=O)c8cccc(C(F)(F)F)n8)cc7s6)CC5)CC4(F)F)C3)c21 (some centres unmarked)	10 to 100 nM
Cc1nn(C2CCC(=O)NC2=O)c2cccc([C@H]3CCN(C[C@H]4CC[C@H](n5cc6cc(NC(=O)c7cccc(C(F)(F)F)n7)ncc6n5)CC4)C[C@@H]3F)c12 (some centres unmarked)	10 to 100 nM

Now let's try a different one.
Record Cn1c(=O)n(C2CCC(=O)NC2=O)c2cccc([C@@H]3CCN(C[C@H]4CC[C@H](n5cc6cc(NC(=O)c7cncc(C(F)(F)F)n7)c(C(C)(C)O)cc6n5)CC4)C[C@H]3F)c21 (some centres unmarked) , field DC50: < 10 nM

----------
Target Or Test System: IRAK4 (Homo sapiens, UniProt Q9NWZ3)
Construct: endogenous in cells; host or cells: OCI-LY10
Sequence (Q9NWZ3 whole entry): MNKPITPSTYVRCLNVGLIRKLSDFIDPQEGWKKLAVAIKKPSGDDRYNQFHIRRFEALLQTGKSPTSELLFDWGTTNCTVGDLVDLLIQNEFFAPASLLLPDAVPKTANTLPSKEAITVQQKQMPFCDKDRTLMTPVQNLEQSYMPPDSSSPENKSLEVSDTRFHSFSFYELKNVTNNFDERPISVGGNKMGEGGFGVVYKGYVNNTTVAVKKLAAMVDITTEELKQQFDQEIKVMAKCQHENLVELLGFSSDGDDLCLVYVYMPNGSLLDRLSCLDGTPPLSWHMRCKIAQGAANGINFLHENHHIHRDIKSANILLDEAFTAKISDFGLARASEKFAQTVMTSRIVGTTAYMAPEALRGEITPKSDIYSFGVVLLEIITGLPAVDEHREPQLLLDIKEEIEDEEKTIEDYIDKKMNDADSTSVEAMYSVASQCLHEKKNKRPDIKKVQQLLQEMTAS
Test Name: IRAK4 MSD degradation in OCI-LY10
Format: cell-based
Conditions: OCI-LY10 cells, 24 hrs, Meso Scale Discovery
Reported DC50 values for the following molecules.

Solved entries (count: 2):
Molecule	Result
CN(C[C@H]1CC[C@H](n2cc(NC(=O)c3cnn4ccc(N5CCCC5)nc34)c(C(F)F)n2)CC1)[C@@H]1CCN(c2cccc3c2n(C)c(=O)n3C2CCC(=O)NC2=O)C[C@H]1F (stereo partly shown) [I-40]	< 0.01 µM
Cn1c(=O)n(C2CCC(=O)NC2=O)c2cccc(N3CCC4(CCN(C[C@H]5CC[C@H](n6cc7cc(NC(=O)c8cncc(C(F)(F)F)n8)c(C(C)(C)O)cc7n6)CC5)CC4(F)F)CC3)c21 (stereo partly shown) [I-354]	< 0.01 µM

Record COc1cc2nn([C@H]3CC[C@H](CN4CCC5(CN(c6c(F)ccc7c6n(C)c(=O)n7C6CCC(=O)NC6=O)C5)C(F)(F)C4)CC3)cc2cc1NC(=O)c1cncc(C#N)c1 (stereo partly shown) [I-260] . Reported DC50: < 0.01 µM

Quick note, DC50 for COc1cc2nc([C@H]3CC[C@H](CN4CC[C@@H](c5cccc6c5n(C)c(=O)n6C5CCC(=O)NC5=O)[C@H](F)C4)CC3)cn2cc1NC(=O)c1cccc(C(F)(F)F)c1 (stereo partly shown) [I-278] landed at < 0.01 µM

DC50 recorded for this molecule, Cn1c(=O)n(C2CCC(=O)NC2=O)c2cccc([C@@H]3CCN(C[C@H]4CC[C@H](n5cc6cc(NC(=O)c7cncc(C(F)F)n7)ccc6n5)CC4)CC3(F)F)c21 (stereo partly shown) [I-384] , is < 0.01 µM

Entry Cc1cncc(C(=O)Nc2ccc3nn([C@H]4CC[C@H](CN5CC[C@@H](c6cccc7c6n(C)c(=O)n7C6CCC(=O)NC6=O)[C@H](F)C5)CC4)cc3c2)n1 (stereo partly shown) [I-307] — recorded DC50 = < 0.01 µM

Looking up COc1cc2nc([C@H]3CC[C@H](CN(C)[C@@H]4CCN(c5cccc6c5n(C)c(=O)n6C5CCC(=O)NC5=O)C[C@@H]4F)CC3)sc2cc1NC(=O)c1cccc(C(F)(F)F)n1 (single isomer, unassigned) [I-99] , I found its DC50 recorded as < 0.01 µM
